assay: HPDE-C7 pancreatic duct cell viability loss – fluorescence, HTS (AID 430); conditions: HPDE-C7 pancreatic duct cells viability, at 10 µM, stronger effect = higher value;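 note: cells exposed to compound for 48 hours before viability readout; 0% = vehicle and 100% = reference cytotoxic drug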
The whole screen tested about 63,000 compounds, of which about 1,100 (1.7%) were called active. Many of the other results were omitted from the sample, so actives are more common in it than they were. Potency and affinity values are given separately.
Reported values of cytotoxicity for individual entries
experimental readout: cytotoxicity (%)

- molecule: "Cc1ccc(-c2nc(CS(=O)CC(=O)N3CCC4(CC3)OCCO4)c(C)o2)cc1 (stereo unspecified)"
  observed measurement: 1.6
- molecule: "CN(C)CP(=O)(Nc1ccccc1)N(C)C (stereo unspecified)"
  observed measurement: -14.4
- molecule: "CCc1nc(N2CCNCC2)c(C#N)c2c1CSC(C)(C)C2"
  observed measurement: 37.6
- molecule: "CSc1ccc(CNC2CN3CCC2CC3)cc1 (stereo unspecified)"
  observed measurement: -5.8
- molecule: "O=C(c1cc(-c2cccnc2)nc2ccc(Cl)cc12)N1CCC2(CC1)OCCO2"
  observed measurement: 4.7
- molecule: "COc1ccc(C(=O)C(C)(C)NO)cc1"
  observed measurement: -9.5
- molecule: "OCCNc1c2c(nc3ccccc13)CCCC2"
  observed measurement: -2.4
- molecule: "O=C(C(Cc1ccccc1)NS(=O)(=O)c1cccc2nsnc12)N1CCC2(CC1)OCCO2 (stereo unspecified)"
  observed measurement: -4.1
- molecule: "COc1cc(OC)c(OC)cc1CNC(C)C(O)c1ccccc1 (stereo unspecified)"
  observed measurement: 2.2
- molecule: "C[C@@]1(CO)[C@H](O)CC[C@@]2(C)[C@H]1CC[C@H]1C[C@@H]3C[C@@]12CC[C@]3(O)CO"
  observed measurement: 82.5
- molecule: "O=C(CN1C(=O)CN=C(c2ccccc2Cl)c2cc(Cl)ccc21)NCc1ccco1"
  observed measurement: 2.5

Origin of values: PubChem BioAssay AID430
